B1: glmS ribozyme (parent)
chain: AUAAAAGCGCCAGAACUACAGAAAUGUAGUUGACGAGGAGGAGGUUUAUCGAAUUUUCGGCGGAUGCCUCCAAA

Variants of: B1
Assay: self-cleavage kobs at 160 uM GlcN6P; higher = faster cleavage; RNA array
Details: with glucosamine-6-phosphate
This sample holds only a part of the variants without activity.
For each entry below, report its self-cleavage kobs at 160 uM GlcN6P value.
Numbers only, in s⁻¹.

mut="A14C U55C" recorded_value=0.000312
mut="G29A U55C" recorded_value=9.66e-05
mut="U30A G38U U65G C68G" recorded_value=0.000204
mut="A48U U54A" recorded_value=3.6e-05

For the next question, use this variant.
Problem: For the variant shown here, A14G U31A , give the reported self-cleavage kobs at 160 uM GlcN6P.
Solution: 0.0027
